ASSAY SYSTEM: Muscarinic acetylcholine receptor M4 (Homo sapiens)
ASSAY NAME: M4-linked GIRK flux change, two-sided – cell-based, HEK293 M4/GIRK, thallium flux, BTC-AM, M4 allosteric agonist project, primary screen (AID 625);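 note: thallium influx through GIRK channels coupled to M4 in HEK293 cells with BTC-AM dye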
ASSAY SETUP: at 10 µM, actives lie on both sides
ATTRIBUTE MEASURED: fluorescence slope
I'd appreciate a reply containing only the number, no unit.

IN: # return fluorescence slope of `CCN1CCN(CCCNC(=O)c2cn(CCOC)c(=O)c3c2c2ccccc2n3C)CC1` (system: Muscarinic acetylcholine receptor M4 (Homo sapiens))
OUT: 0.00513

IN: Under Muscarinic acetylcholine receptor M4 (Homo sapiens): report fluorescence slope of CCC(Sc1nc2n[nH]c(C)c2c(=N)n1-c1cc(Cl)ccc1C)C(=O)N1CCOCC1 (centres undefined) .
OUT: 0.00508

IN: Give the observed fluorescence slope of `CCCCN(CC)S(=O)(=O)N1CCC(C(=O)NCc2ccc(F)cc2)CC1` for Muscarinic acetylcholine receptor M4 (Homo sapiens).
OUT: 0.00507

IN: Provide the reported fluorescence slope (system: Muscarinic acetylcholine receptor M4 (Homo sapiens)) for `O=C(Cc1cccs1)Nc1ccccc1C(=O)O`
OUT: 0.00502

----------
ASSAY NAME: inhibitors of TNFa-induced NFkB p65 translocation, primary screen, imaging, HUVEC, MLSMR starter and 10KST1 sets (AID 438);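 note: compound added about 3h40 before a 20 min TNFalpha stimulation; signal is the nuclear over cytoplasmic p65 intensity ratio per well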
ASSAY SETUP: HUVEC TNFa-induced p65 nuclear translocation; at 2 µM, stronger effect = higher value, 0% TNFa-plus-vehicle, 100% no-TNFa wells
Calls of active or inactive are those of the source.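 How the source made its calls: active means inhibition above 20% together with a positive visual image hit; inconclusive means visual image hit but inhibition not above 20%; inactive means no visual image hit.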
Provide the reported inhibition of each item.

IN: Check the records and state inhibition for `O=C1CC(=O)N(Cc2cccs2)C(=O)N1`
OUT: 4.7% (inactive)

IN: Look up inhibition of `CCCCOc1ccc(NC(=O)Cn2c(=O)ccc3c(C)cc(C)nc32)cc1` and report it.
OUT: 5.6% (inactive)

IN: Using known records, supply inhibition for `Cc1ccc(Cn2c(SCC(C)C)nc3c2c(=O)n(C)c(=O)n3C)cc1`
OUT: -1.3% (inactive)

IN: Dear colleague, please send me the reported inhibition for `N#Cc1cc2sc3nnc(-c4ccncc4)n3c2cc1C#N` when you can.
OUT: 10.9% (inactive)

IN: Answer with the recorded inhibition of `O=C(Cn1cnc2c(oc3ccccc32)c1=O)N1CCN(c2ccccc2)CC1` only.
OUT: 10.8% (inactive)

IN: Name the recorded inhibition of the compound listed here: `CC1=C(C#N)C(=O)NC(C)(C)C1`
OUT: 4.1% (inactive)

IN: Identify measured inhibition associated with `CCOC(=O)CSc1nc2ccccc2c(=O)n1CCN1CCOCC1`
OUT: -3.4% (inactive)

IN: Supply inhibition value. Item: `COc1ccc(OCC(=O)N2CCN(C(=O)c3cccs3)CC2)cc1`
OUT: -7% (inactive)

IN: Please report inhibition for the following compound: `CC(C)(C)n1nc2c(c1NC(=O)COc1ccc(Cl)cc1)CSC2`
OUT: 3.8% (inactive)

IN: For the compound `Cc1ccc(C(=O)CSc2nnc(-c3cccnc3)n2N)cc1` , give its reported inhibition.
OUT: -20.3% (inactive)

IN: Tell me its inhibition given O=C(NCc1ccco1)C1CC(=O)N(c2ccc(F)cc2)C1 (centres undefined) as the entry.
OUT: 3.6% (inactive)

IN: Dear colleague, please send me the reported inhibition for `CC(C)CCNC(=O)NC(=O)CSc1nnc(-c2ccccc2F)n1N` when you can.
OUT: 0.4% (inactive)

IN: Find the measured inhibition of `CCOc1ccc(NC(=O)CSc2nnnn2CC(=O)O)cc1` and report it.
OUT: -1.4% (inactive)

IN: Please report inhibition for the following compound: `Cc1ccc(NC(=O)c2oc3ccc(S(=O)(=O)N4CCOCC4)cc3c2C)cc1C`
OUT: -20.4% (inactive)

----------
ASSAY NAME: endothelial E-selectin expression blockers – imaging, HUVEC, immunofluorescence, MLSMR starter and 10KST1 sets, primary screen (AID 487);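 note: signal is fraction of cell area covered by stained E-selectin grains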
ASSAY SETUP: HUVEC TNFalpha-induced E-selectin immunofluorescence imaging, at 2 µM; stronger effect = higher value
Hi there, I'd appreciate the recorded inhibition for every entry that follows.
# value in %; strip the unit string

IN: Assign inhibition to the following record: CCN1CCCC1CNCc1ccc(Cl)cc1Cl (configuration not stated)
OUT: -106

IN: Output measured inhibition for this item: `COC(=O)c1oc2ccc(OC)cc2c1N`
OUT: -4.2

IN: Indicate the recorded inhibition value for this compound: `C=CCOc1nc(N2CCCC2)nc(N2CCCC2)n1`
OUT: 23.8

IN: Give the reported value of inhibition for this record: `Cc1onc(-c2ccccc2)c1C(=O)Nc1ccnn1C1CCCCC1`
OUT: 8.4

IN: Indicate the recorded inhibition value for this compound: CC(C)(C)C(=O)N=C1SC2CS(=O)(=O)CC2N1c1ccc2c(c1)OCO2 (configuration not stated)
OUT: 6.6

IN: Tell me measured inhibition for `[O-][n+]1onc2c1CCc1nnc(-c3ccccc3)cc1-2` please.
OUT: -7.3

IN: Quick one: give measured inhibition for `COC(=O)c1sc(S(=O)(=O)Nc2ccc3cn[nH]c3c2)c(C(=O)OC)c1C`
OUT: -83.8

IN: Hello, please tell me recorded inhibition for this one: `Cc1cc(NC(=O)Cn2cnc3c2c(=O)n(C)c(=O)n3C)n(-c2ccccc2)n1`
OUT: 22.7

IN: Tell me its inhibition given `CCn1c(SCC(N)=O)nc2c1c(=O)n(C)c(=O)n2C` as the entry.
OUT: -57.2

IN: Supply recorded inhibition for `O=C1NCCCc2c1no[n+]2[O-]` here.
OUT: -31.3

IN: Specify measured inhibition for `Cc1cc(C)cc(NS(=O)(=O)c2ccc3[nH]cc(C(=O)NCc4ccco4)c(=O)c3c2)c1` .
OUT: -19.7

IN: Report measured inhibition; entry is `CCCNS(=O)(=O)c1ccc(OCC(=O)Nc2ccccc2F)cc1`
OUT: -57.2

IN: For the compound `Cc1nn(-c2ccc(F)cc2)c2nc(N)c(C#N)c(-c3cccs3)c12` , report inhibition.
OUT: -126

IN: Tell us which inhibition value is on record for COc1ccc(C(=O)C2CCCCC2=O)cc1 (configuration not stated)
OUT: 43.3

IN: Using known records, supply inhibition for CC(=O)c1cccc(NC(=O)N2CCCC2C(=O)NCc2ccc(C)cc2)c1 (configuration not stated)
OUT: -6.3

IN: Consider the compound CCOC(=O)c1ccc(NCC(O)COc2ccccc2)cc1 (configuration not stated) . State its measured inhibition.
OUT: -60.3

IN: Please look at this compound and report its inhibition: `COc1ccccc1N1CCN(C(=O)CSc2nc(-c3ccccc3)cc(=O)[nH]2)CC1`
OUT: -30.1

IN: Answer with the recorded inhibition for the compound listed here: CN(c1ccccc1)C(c1ccc(F)cc1)c1nnnn1CC1CCCO1 (configuration not stated)
OUT: -61.8

IN: Give inhibition for the following compound: COC(=O)c1ccccc1NC(=O)c1noc2c1CC(C(C)(C)C)CC2 (configuration not stated)
OUT: -31.4

IN: For the compound `Cc1ccc(Cn2c(SCC(C)C)nc3c2c(=O)n(C)c(=O)n3C)cc1` , give its measured inhibition value.
OUT: -65.5

IN: Consider the compound `Oc1c(Cl)cc(Cl)cc1Sc1cc(Cl)cc(Cl)c1O` and give its recorded inhibition.
OUT: -49.8

IN: Please supply the value of reported inhibition for the item `c1cnn(-c2cc(N3CCOCC3)ncn2)c1`
OUT: 2.8

----------
ASSAY NAME: endothelial E-selectin expression blockers – imaging, HUVEC, immunofluorescence, MLSMR starter and 10KST1 sets, primary screen (AID 487);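 note: signal is fraction of cell area covered by stained E-selectin grains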
ASSAY SETUP: HUVEC TNFalpha-induced E-selectin immunofluorescence imaging, at 2 µM
Active and inactive are the calls of the source.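 How the source made its calls: active means visually confirmed hit in the image check and inhibition above 20%; inconclusive means visually confirmed hit but inhibition not above 20%; inactive means no visual hit in the image check.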
Use one of these outcomes when replying: yes (1) = active, no (0) = inactive

IN: # outcome recorded in this test, key = `CCc1ccc2oc(-c3cc(N)ccc3Cl)nc2c1`
OUT: no (0)

IN: How was `O=c1cc(COn2nnc3ccc(C(F)(F)F)cc32)nc2sccn12` classified in this test?
OUT: no (0)

IN: Could you kindly confirm the outcome this assay logged for `Nc1c(C2=NCCO2)nnn1Cc1ccccc1` ?
OUT: no (0)

IN: What did the test return for `CCCCn1c(CN2CCN(CCO)CC2)nc2ccccc21` ?
OUT: no (0)

IN: For `COC(=O)c1sc(NC(=O)COc2ccccc2OC)nc1C` , what call appears in the results of this test?
OUT: no (0)

IN: // param item: `O=C(Nc1ccc(N2CCOCC2)cc1)c1cccc(S(=O)(=O)N2CCCC2)c1` ; yields the recorded call
OUT: no (0)

IN: Would you mind telling me which call this test gave `COC(=O)c1c(N)nc(C)n1-c1ccc(OC)cc1` ?
OUT: no (0)

IN: What outcome does the record of this test show for CCC(Sc1ccc(C(=O)O)cc1)C(=O)O (configuration not stated) ?
OUT: no (0)

IN: Could you please tell me the result logged for `NC(=O)c1c(NC(=O)CSc2nnc(-c3ccco3)n2-c2ccccc2)sc2c1CCC2` in this assay?
OUT: no (0)

IN: Could you please tell me the result logged for `Cc1cc2c(=O)n(CC(=O)N3CCN(c4ccccc4)CC3)cnc2s1` in this assay?
OUT: no (0)

IN: Please let me know the test result on file for Cc1nn(-c2ccccc2)c(Cl)c1C1C(C#N)=C(N)OC2=C1C(=O)CC(C)(C)C2 (configuration not stated) .
OUT: no (0)

IN: # fetch the recorded call for `Cc1ccc(NC(=O)CSc2nnc(CCCCCNC(=O)OC(C)(C)C)o2)c(C)c1` here
OUT: no (0)

IN: How did this test come out for CCSC1=C(C#N)C(c2cccc(OC)c2)CC(=O)N1 (configuration not stated) ?
OUT: no (0)

IN: Assay result, entry `CCOC(=O)c1sc2nc(C)cc(C)c2c1N` — outcome?
OUT: no (0)

IN: Write down the call the test reported for this compound. Item: O=C(c1ccccc1)N1CCCCC(Sc2nnnn2-c2ccccc2)C1=O (configuration not stated)
OUT: no (0)

IN: GET /call?item= `COc1ccc([C@@H]2Sc3ccccc3N(CCN(C)C)C(=O)[C@@H]2OC(C)=O)cc1` returns the recorded outcome of this test.
OUT: no (0)

IN: // return assay outcome for `COC(=O)Nc1ccc(S(=O)(=O)N2CCN(c3ccc(F)cc3)CC2)cc1`
OUT: no (0)

IN: For CC1Cc2ccccc2N1C(=O)Cc1cccs1 (configuration not stated) , what call appears in the results of this test?
OUT: no (0)

IN: Can you look up the reported call for `O=C(CN(Cc1ccco1)C(=O)CNS(=O)(=O)c1ccc(Cl)cc1)NCc1ccc(F)cc1` for me?
OUT: no (0)

IN: Recorded test outcome, item `O=C(CCN1CCc2ccccc2CC1)c1ccc2c(c1)OCCO2`
OUT: no (0)

IN: Please let me know the test result on file for `COc1ccc(C(F)(F)F)cc1NC(=O)c1nc2nc(C)cc(C(F)F)n2n1` .
OUT: no (0)

IN: Assay result, entry CCNC(=O)C1CC(=O)N(Cc2ccc3c(c2)OCO3)C(=Nc2ccc(OCC)cc2)S1 (configuration not stated) — outcome?
OUT: no (0)

IN: Hello, I am checking results. What call was entered for CCC(c1nnc(SCC(=O)NCC2CCCO2)n1Cc1ccccc1)N(C)C (configuration not stated) ?
OUT: no (0)

IN: Which result was noted for this compound in the test: `Cc1cc(SCC(N)=O)nc(SCC(=O)c2ccccc2)n1`
OUT: no (0)

IN: Please state the recorded outcome for this compound: `O=C(CP(=O)(CO)CO)c1ccc(Cl)cc1`
OUT: no (0)

IN: For `COCCn1c(=O)[nH]c2cc(C(=O)NCc3cccnc3)ccc2c1=O` , which call appears in the assay record?
OUT: yes (1)

IN: Check the results log: what was the call for `COc1ccc(-c2cc(C(=O)NCCc3ccccc3)no2)cc1OC` ?
OUT: no (0)

IN: How did this test come out for `N=c1sc2ccccc2n1-c1ccccc1` ?
OUT: no (0)

IN: Returns: the outcome recorded for `Cc1occc1C(=O)Nc1ccccc1NC(=O)c1ccoc1C` in this assay.
OUT: no (0)

IN: Could you check what this test reported for `Cc1cccc(N2CCN(C(=O)c3cc4c(=O)[nH]c5ccccc5c4n3C)CC2)c1C` ?
OUT: no (0)

IN: Each compound tested received a call. Report the one for COc1ccccc1C(=O)N1CCCC(c2nc(-c3cc(OC)c(OC)c(OC)c3)no2)C1 (configuration not stated) .
OUT: no (0)

IN: What was the test verdict on `O=C(CN1C(=O)NC2(CCCCCC2)C1=O)N1CCC(Cc2ccccc2)CC1` ?
OUT: no (0)
